target: Human HER3, endogenous, on human cancer cell lines (human, UniProt P21860 20-1342); assay: cell-based or functional assay
Recorded MCF7 pHER3 IC50 values for a group of binders are listed next.
Express it in pM; write the number only.

Find the recorded MCF7 pHER3 IC50 belonging to MOR09974 (antibody, human IgG1, kappa, V domains shown, tested as IgG) VH: QVQLVESGGGLVQPGGSLRLSCAASGFTFSSYAMSWVRQAPGKGLEWVSVINPSGNFTNYADSVKGRFTISRDNSKNTLYLQMNSLRAEDTAVYYCARWGDEGFDIWGQGTLVTVSS VL: DIQMTQSPSSLSASVGDRVTITCRASQGISNWLAWYQQKPGKAPKLLIYGASSLQSGVPSRFSGSGSGTDFTLTISSLQPEDFAVYYCQQYSSFPTTFGQGTKVEIKR and report it.
3070

Dear colleague, I am looking for the recorded MCF7 pHER3 IC50 of the following binder: MOR09824 (antibody, human IgG1, kappa, V domains shown, tested as IgG) VH: QVQLVESGGGLVQPGGSLRLSCAASGFTFSSYAMSWVRQAPGKGLEWVSVISAWGHVKYYADSVKGRFTISRDNSKNTLYLQMNSLRAEDTAVYYCARWGDEGFDIWGQGTLVTVSS VL: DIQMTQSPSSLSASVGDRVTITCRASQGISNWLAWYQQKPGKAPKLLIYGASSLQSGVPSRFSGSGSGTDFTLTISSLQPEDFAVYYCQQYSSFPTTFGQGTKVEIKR
103

For MOR09825 (antibody, human IgG1, kappa, V domains shown, tested as IgG) VH: QVQLVESGGGLVQPGGSLRLSCAASGFTFSSYAMSWVRQAPGKGLEWVSAINSQGKSTYYADSVKGRFTISRDNSKNTLYLQMNSLRAEDTAVYYCARWGDEGFDIWGQGTLVTVSS VL: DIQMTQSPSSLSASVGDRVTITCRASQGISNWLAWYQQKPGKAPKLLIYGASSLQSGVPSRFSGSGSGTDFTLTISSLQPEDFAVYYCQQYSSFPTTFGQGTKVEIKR , what is its reported MCF7 pHER3 IC50?
399
